- SYSTEM: Virion infectivity factor (Human immunodeficiency virus type 1 group M subtype B (isolate BH10)) + Virion infectivity factor (Human immunodeficiency virus type 1 group M subtype B (isolate BRU/LAI)) + Virion infectivity factor (Human immunodeficiency virus type 1 group M subtype B (isolate PCV12)) + Virion infectivity factor (Human immunodeficiency virus type 1 group M subtype B (isolate HXB2)) + DNA dC->dU-editing enzyme APOBEC-3G (Homo sapiens) (UniProt P69720+P69721+P69722+P69723+Q9HC16)
- ASSAY_NAME: inhibitors of Vif binding to APOBEC3G peptide, primary screen, biochemical, TR-FRET, GST-Vif 1-94, biotin-A3G peptide, dose response retest (AID 1117319);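 note: Vif residues 1-94 fused to GST binding biotinylated APOBEC3G peptide 110-148; 0% = full assay without inhibitor and 100% = GST in place of GST-Vif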
- CONDITION_SET: hits give high values
Out of some 260,000 compounds screened, about 1,500 (0.58%) were called active. Inconclusive results (about 5%) are left out. Not all results are given here. Results with a measured potency or affinity are listed apart.
Consider the following compounds and their measured inhibition readings.
METRIC: inhibition (%)

In [3]: df
Out[3]:
                                smiles_repr      metric  reported_value
0  O=C(Nc1cccc(-c2nnn(CC(=O)N3CCc4ccccc4C3)n2)c1)C1CCC1  inhibition           -4.46
1  COc1ccc(-n2c(SCC(=O)Nc3ccc(C(=O)O)cc3)nnc2-c2ccccc2)cc1OC  inhibition             4.7
2  CC(C)CC(=O)Nc1ccccc1-c1nnn(CC(=O)N2CCc3ccccc3C2)n1  inhibition            10.6
3                  COc1ccc2nc3c(nc2c1)CCCC3  inhibition           -1.28
4                COC(=O)/C=C/C(=O)Nc1cccnc1  inhibition            15.1
5                      O=C(/C=N/O)Nc1cccnc1  inhibition            28.5

---

- SYSTEM: Virion infectivity factor (Human immunodeficiency virus type 1 group M subtype B (isolate BH10)) + Virion infectivity factor (Human immunodeficiency virus type 1 group M subtype B (isolate BRU/LAI)) + Virion infectivity factor (Human immunodeficiency virus type 1 group M subtype B (isolate PCV12)) + Virion infectivity factor (Human immunodeficiency virus type 1 group M subtype B (isolate HXB2)) + DNA dC->dU-editing enzyme APOBEC-3G (Homo sapiens) (UniProt P69720+P69721+P69722+P69723+Q9HC16)
- ASSAY_NAME: inhibitors of Vif binding to APOBEC3G peptide, primary screen, biochemical, TR-FRET, GST-Vif 1-94, biotin-A3G peptide, dose response retest (AID 1117319);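 note: Vif residues 1-94 fused to GST binding biotinylated APOBEC3G peptide 110-148; 0% = full assay without inhibitor and 100% = GST in place of GST-Vif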
- CONDITION_SET: hits give high values
Out of some 260,000 compounds screened, about 1,500 (0.58%) were called active. Not shown: some 5% with an inconclusive outcome. The list is a sample of the results. Entries with a potency or affinity are not part of this list.
Consider the following molecules and their measured inhibition readings.
METRIC: inhibition (%)

>>> print(df.to_string())
                                    molecule      metric  measure_unit  reported_value
 0          Cc1noc(N)c1C(=O)Nc1ccc(F)c(Cl)c1  inhibition             %           -9.43
 1  CC1(C)CC(NC(=O)COc2ccc([N+](=O)[O-])cc2)CC(C)(C)N1  inhibition             %           -0.99
 2  CN(c1ccccc1)S(=O)(=O)c1ccc(C(=O)NCC2CCCO2)cc1 (stereo unspecified)  inhibition             %            6.12
 3  COc1ccc(OC)c(C2Nc3c(Cl)ccc(C(=O)O)c3C3C=CCC32)c1 (stereo unspecified)  inhibition             %           -11.5
 4  CCCC(=O)C1=C(O)C(C(=O)OC)C(C)(C)CC1=Nc1ccc(N)cc1 (stereo unspecified)  inhibition             %            0.65
 5  Cn1c(N)c(C(=O)COC(=O)Cc2ccc(Cl)cc2)c(=O)n(C)c1=O  inhibition             %            0.17
 6  CCCC(=Nc1ccccc1)C1=C(O)C(C(=O)OC)C(C)(C)CC1=O (stereo unspecified)  inhibition             %            26.8
 7  COc1ccccc1OCC(=O)NCC(C)NC(=O)COc1ccccc1OC (stereo unspecified)  inhibition             %            5.26
 8  Clc1cccc(-c2cc3nc4c(c(NCc5ccco5)n3n2)CCCC4)c1  inhibition             %           -4.82
 9  O=C1c2ccccc2-c2c1cccc2C(=O)N1CCN(C(=O)c2ccco2)CC1  inhibition             %            18.7
10  Cc1ccc([N+](=O)[O-])cc1S(=O)(=O)Nc1ccccn1  inhibition             %            11.9

Every entry's value here was drawn from PubChem BioAssay AID1117319.
